- RECORDED_CONDITIONS: GHI-H (GHI 10 mL/kg, i.v.), MI/R rats, plasma, n = 6
RECORDED_METRIC: t1/2α (min)

Answered examples (2):
COMPOUND	UNIT_ANNOTATION	t1/2α
O=c1c(O[C@@H]2O[C@H](CO)[C@@H](O)[C@H](O)[C@H]2O)c(-c2ccc(O)cc2)oc2cc(O)cc(O)c12 [Kaempferol-3-O-glucoside, kaempferol-3-O-glucoside]	min	1.32
O=c1c(O[C@@H]2O[C@H](CO)[C@H](O)[C@H](O)[C@H]2O)c(-c2ccc(O)c(O)c2)oc2cc(O)cc(O)c12 [Hyperoside, hyperoside]	min	0.9

1: C[C@@H]1O[C@@H](OC[C@H]2O[C@@H](Oc3c(-c4ccc(O)c(O)c4)oc4cc(O)cc(O)c4c3=O)[C@H](O)[C@@H](O)[C@@H]2O)[C@H](O)[C@H](O)[C@H]1O
2: O=C(O)/C=C/c1ccc(O)cc1
3: O=C(/C=C/c1ccc(O)c(O)c1)O[C@@H]1C[C@](O)(C(=O)O)C[C@@H](O)[C@H]1O
Req: Place the items in sequence of falling t1/2α. # format: label list in the order the request specifies
Resp: 2, 3, 1

---

- RECORDED_CONDITIONS: GHI-L (GHI […], i.v.), MI/R rats, plasma, n = 6
RECORDED_METRIC: K12 (h⁻¹)

MOLECULE	K12 / h⁻¹
C[C@@H]1O[C@@H](OC[C@H]2O[C@@H](Oc3c(-c4ccc(O)c(O)c4)oc4cc(O)cc(O)c4c3=O)[C@H](O)[C@@H](O)[C@@H]2O)[C@H](O)[C@H](O)[C@H]1O	16.754
O=c1c(O[C@@H]2O[C@H](CO)[C@H](O)[C@H](O)[C@H]2O)c(-c2ccc(O)c(O)c2)oc2cc(O)cc(O)c12 [Hyperoside, hyperoside]	18.242
O=C(O)/C=C/c1ccc(O)cc1	14.117
O=c1c(O[C@@H]2O[C@H](CO)[C@@H](O)[C@H](O)[C@H]2O)c(-c2ccc(O)cc2)oc2cc(O)cc(O)c12 [Kaempferol-3-O-glucoside, kaempferol-3-O-glucoside]	15.148
O=C(/C=C/c1ccc(O)c(O)c1)O[C@@H]1C[C@](O)(C(=O)O)C[C@@H](O)[C@H]1O	14.327

---

- RECORDED_CONDITIONS: GHI-L (GHI […], i.v.), MI/R rats, plasma, n = 6
RECORDED_METRIC: Q (mL/min/kg)

Answered examples (3):
MOLECULE	Q / mL/min/kg
O=c1c(O[C@@H]2O[C@H](CO)[C@@H](O)[C@H](O)[C@H]2O)c(-c2ccc(O)cc2)oc2cc(O)cc(O)c12 [Kaempferol-3-O-glucoside, kaempferol-3-O-glucoside]	133.3
O=C(O)/C=C/c1ccc(O)cc1	98.48
O=c1c(O[C@@H]2O[C@H](CO)[C@H](O)[C@H](O)[C@H]2O)c(-c2ccc(O)c(O)c2)oc2cc(O)cc(O)c12 [Hyperoside, hyperoside]	144.8

P: C[C@@H]1O[C@@H](OC[C@H]2O[C@@H](Oc3c(-c4ccc(O)c(O)c4)oc4cc(O)cc(O)c4c3=O)[C@H](O)[C@@H](O)[C@@H]2O)[C@H](O)[C@H](O)[C@H]1O
Q: O=C(/C=C/c1ccc(O)c(O)c1)O[C@@H]1C[C@](O)(C(=O)O)C[C@@H](O)[C@H]1O
Req: Which value of Q is numerically greater: that of P or that of Q ? Pick one and reply with its label.
Resp: Q
(Q: 149.8 mL/min/kg, P: 104.4 mL/min/kg)

---

- RECORDED_CONDITIONS: GHI-L (GHI […], i.v.), MI/R rats, plasma, n = 6
RECORDED_METRIC: K10 (h⁻¹)

1: O=C(O)/C=C/c1ccc(O)cc1
2: O=C(/C=C/c1ccc(O)c(O)c1)O[C@@H]1C[C@](O)(C(=O)O)C[C@@H](O)[C@H]1O
Req: Which value of K10 is numerically greater: that of 1 or that of 2 ? Pick one and reply with its label.
Resp: 1
(1: 8.039 h⁻¹, 2: 4.274 h⁻¹)

---

- RECORDED_CONDITIONS: GHI-M (GHI 5 mL/kg, i.v.), MI/R rats, plasma, n = 6
RECORDED_METRIC: V2 (L/kg)

MOLECULE	TEST_VALUE
O=c1c(O[C@@H]2O[C@H](CO)[C@@H](O)[C@H](O)[C@H]2O)c(-c2ccc(O)cc2)oc2cc(O)cc(O)c12 [Kaempferol-3-O-glucoside, kaempferol-3-O-glucoside]	1.87
C[C@@H]1O[C@@H](OC[C@H]2O[C@@H](Oc3c(-c4ccc(O)c(O)c4)oc4cc(O)cc(O)c4c3=O)[C@H](O)[C@@H](O)[C@@H]2O)[C@H](O)[C@H](O)[C@H]1O [Rutin, rutin]	1.075
O=C(O)/C=C/c1ccc(O)cc1 [p-Coumaric acid, p-coumaric acid]	0.7

P: O=C(/C=C/c1ccc(O)c(O)c1)O[C@@H]1C[C@](O)(C(=O)O)C[C@@H](O)[C@H]1O [Chlorogenic acid, chlorogenic acid]
Q: O=c1c(O[C@@H]2O[C@H](CO)[C@H](O)[C@H](O)[C@H]2O)c(-c2ccc(O)c(O)c2)oc2cc(O)cc(O)c12 [Hyperoside, hyperoside]
Req: Which value of V2 is numerically greater: that of P or that of Q ? Pick one and reply with its label.
Resp: P
(P: 1.49 L/kg, Q: 0.935 L/kg)

---

- RECORDED_CONDITIONS: GHI-H (GHI 10 mL/kg, i.v.), MI/R rats, plasma, n = 6
RECORDED_METRIC: K10 (h⁻¹)

Answered examples (3):
MOLECULE	UNIT_ANNOTATION	K10
O=C(/C=C/c1ccc(O)c(O)c1)O[C@@H]1C[C@](O)(C(=O)O)C[C@@H](O)[C@H]1O	h⁻¹	6.701
O=c1c(O[C@@H]2O[C@H](CO)[C@@H](O)[C@H](O)[C@H]2O)c(-c2ccc(O)cc2)oc2cc(O)cc(O)c12 [Kaempferol-3-O-glucoside, kaempferol-3-O-glucoside]	h⁻¹	9.636
O=c1c(O[C@@H]2O[C@H](CO)[C@H](O)[C@H](O)[C@H]2O)c(-c2ccc(O)c(O)c2)oc2cc(O)cc(O)c12 [Hyperoside, hyperoside]	h⁻¹	21.205

A: C[C@@H]1O[C@@H](OC[C@H]2O[C@@H](Oc3c(-c4ccc(O)c(O)c4)oc4cc(O)cc(O)c4c3=O)[C@H](O)[C@@H](O)[C@@H]2O)[C@H](O)[C@H](O)[C@H]1O
B: O=C(O)/C=C/c1ccc(O)cc1
Req: Which value of K10 is numerically greater: that of A or that of B ? Pick one and reply with its label.
Resp: A

---

- RECORDED_CONDITIONS: GHI-L (GHI […], i.v.), MI/R rats, plasma, n = 6
RECORDED_METRIC: t1/2α (min)

COMPOUND	t1/2α, min
O=C(/C=C/c1ccc(O)c(O)c1)O[C@@H]1C[C@](O)(C(=O)O)C[C@@H](O)[C@H]1O	2.04
O=c1c(O[C@@H]2O[C@H](CO)[C@H](O)[C@H](O)[C@H]2O)c(-c2ccc(O)c(O)c2)oc2cc(O)cc(O)c12 [Hyperoside, hyperoside]	1.38
O=c1c(O[C@@H]2O[C@H](CO)[C@@H](O)[C@H](O)[C@H]2O)c(-c2ccc(O)cc2)oc2cc(O)cc(O)c12 [Kaempferol-3-O-glucoside, kaempferol-3-O-glucoside]	1.56
O=C(O)/C=C/c1ccc(O)cc1	1.8
C[C@@H]1O[C@@H](OC[C@H]2O[C@@H](Oc3c(-c4ccc(O)c(O)c4)oc4cc(O)cc(O)c4c3=O)[C@H](O)[C@@H](O)[C@@H]2O)[C@H](O)[C@H](O)[C@H]1O	1.44

---

- RECORDED_CONDITIONS: GHI-H (GHI 10 mL/kg, i.v.), MI/R rats, plasma, n = 6
RECORDED_METRIC: V2 (L/kg)

Answered examples (3):
COMPOUND	RECORDED_METRIC	UNIT_ANNOTATION	TEST_VALUE
O=C(O)/C=C/c1ccc(O)cc1	V2	L/kg	0.669
O=c1c(O[C@@H]2O[C@H](CO)[C@@H](O)[C@H](O)[C@H]2O)c(-c2ccc(O)cc2)oc2cc(O)cc(O)c12 [Kaempferol-3-O-glucoside, kaempferol-3-O-glucoside]	V2	L/kg	1.419
O=c1c(O[C@@H]2O[C@H](CO)[C@H](O)[C@H](O)[C@H]2O)c(-c2ccc(O)c(O)c2)oc2cc(O)cc(O)c12 [Hyperoside, hyperoside]	V2	L/kg	1.207

I: C[C@@H]1O[C@@H](OC[C@H]2O[C@@H](Oc3c(-c4ccc(O)c(O)c4)oc4cc(O)cc(O)c4c3=O)[C@H](O)[C@@H](O)[C@@H]2O)[C@H](O)[C@H](O)[C@H]1O
II: O=C(/C=C/c1ccc(O)c(O)c1)O[C@@H]1C[C@](O)(C(=O)O)C[C@@H](O)[C@H]1O
Req: Which value of V2 is numerically greater: that of I or that of II ? Pick one and reply with its label.
Resp: II
(II: 1.273 L/kg, I: 0.855 L/kg)
